Test system: NCI-H522
Test: NCI tumour cell line growth inhibition, 48 h
Active and inactive are the calls of the source. No stated cut-off is given here; in the data, active = GI50 up to about 1.1 µM and inactive = higher.
The reply should be one of these categories: 1 = active, 0 = inactive

Record excerpt, results attached:
Cc1ccc(C(=O)C2=CN=C3C(=O)N(c4ccccc4)N(C)C3(C)C2=N)cc1 (stereo not given)
0
N#CC(c1ccccc1)(c1ccccc1)[C@@H](c1ccccc1)[C@H](Cc1ccccc1)NS(=O)(=O)c1ccccc1
0
CN(C)CCCCN1c2ccccc2Sc2ccc(C(=O)c3ccccc3)cc21
0
CCCCC(=O)Nc1ccc2cc(C(=O)OC)c(=O)[nH]c2n1
0
N=C(N)N/N=C/c1nc2n(c1[N+](=O)[O-])CCS2
0

Challenge: Outcome logged for COc1ccc(-c2cc3ccccc3oc2=O)cc1OC in this assay:
Response given: 0

Challenge: Check O=C(NCCCN1CCN(CCCNC(=O)Nc2cc(Cl)ccc2Cl)CC1)Nc1cc(Cl)ccc1Cl too.
Response given: 0

Challenge: Check NC(Cc1ncccn1)C(=O)O (stereo not given) too.
Response given: 0

Challenge: Check COC(=O)C1=CC(=O)C(C(=O)Nc2ccc(OC)cc2)C(c2ccccc2)O1 (stereo not given) too.
Response given: 0

Challenge: Check O=c1ccn([C@@H]2C[C@H](CO)C[S+]([O-])C2)c(=O)[nH]1 (stereo not given in full) too.
Response given: 0

Challenge: Check Cc1ccc(C)c(N2C(=O)C(=O)C(c3nc4ccccc4o3)/C(=N\NC(=O)c3ccccc3O)C2=O)c1 (stereo not given) too.
Response given: 0

Challenge: Check CC(=O)OCc1cc(=O)n(C)c2c3c4c(cc12)c(C)cc(=O)n4CO3 too.
Response given: 1

Challenge: Check C=C1C(=O)O[C@H]2C3C(=C(C)CC[C@@H]12)C(=O)[C@@H]1OC31C (stereo not given in full) too.
Response given: 0

Challenge: Check CN(O)C(=O)c1ccccc1 too.
Response given: 0

Challenge: Check CSc1ccc(/C=C2\N=C(c3ccccc3)N(/N=C3\C(=O)Nc4ccccc43)C2=O)cc1 too.
Response given: 0

Challenge: Check C[C@@H](C[C@@H](O)[C@H](O)C(C)(C)O)[C@H]1CC=C2[C@]3(C)[C@H](O)C[C@H]4C(C)(C)[C@H](O)CC[C@]4(C)[C@H]3CC[C@@]21C too.
Response given: 0

Challenge: Check CC1(C)O[C@@H]2[C@@H](COC(C)(C)O[C@H]2C2SCCCS2)O1 too.
Response given: 0

Challenge: Check Cc1cc(C)nc(SC(C)C(=O)N/N=C/c2ccc(OCc3ccccc3)cc2)n1 (stereo not given) too.
Response given: 0

Challenge: Check CC(=O)NCCC1CNc2ccccc21 (stereo not given) too.
Response given: 0

Challenge: Check CC[C@@]1(O)C(=O)OCc2c1cc1n(c2=O)Cc2c-1nc1ccccc1c2/C=N\NC(=O)C(N)CO (stereo not given in full) too.
Response given: 0

* * *

Test system: SNB-78
Experiment: NCI tumour cell line growth inhibition, 48 h
Calls of active or inactive are those of the source. Cut-off read from the data, not from the text of the source: active = GI50 up to about 1.1 µM and inactive = higher.
The reply should be one of these categories: Yes = active, No = inactive

Record excerpt, results attached:
COC(=O)c1cc(-c2ccc(OC)c(OC)c2)oc1-c1ccc(OC)c(OC)c1
No
CCOC(=O)c1sc(Nc2cc(Cl)ccc2Cl)nc1C
No
NC(CCCNc1cccc(O)c1)C(=O)O (stereo unspecified)
No
O=c1c(Br)cc2nc3ccccc3sc-2c1Br
No
CCOC(=O)c1ccc(NC(=O)SCCC(=O)O)cc1
No

Challenge: Outcome logged for CC(C)(c1ccccc1)c1ccc(OC#N)cc1 in this assay:
Response given: No

Challenge: Check CCOc1ccc2nc(NC(=O)C(=O)C(C(=O)c3ccccc3-c3ccccc3)C3OC(=O)c4ccccc43)sc2c1 (stereo unspecified) too.
Response given: No

Challenge: Check COc1ccc(-c2onc(-c3ccc([N+](=O)[O-])cc3)c2C2=NCCCN2)cc1 too.
Response given: No

Challenge: Check CC(=O)OCc1cc(=O)n(C)c2c3c4c(cc12)c(C)cc(=O)n4CO3 too.
Response given: No

* * *

System: NCI-H522
Experiment: NCI tumour cell line growth inhibition, 48 h
Calls of active or inactive are those of the source. Cut-off read from the data, not from the text of the source: active = GI50 up to about 1.1 µM and inactive = higher.
ASSAY ENDPOINT: GI50

N#C[BH2-][n+]1ccc(C(=O)NNCc2cccc(C(F)(F)F)c2)cc1
16.3 µM (inactive)

Challenge: Name the recorded GI50 for c1ccc2c3nnc(c2c1)SCCCSc1nnc(c2ccccc12)SCCCS3 .
Response given: 42.5 µM (inactive)

Challenge: Check O=C1C=C(C2=CC(=O)C(=O)c3ccccc32)c2ccccc2C1=O too.
Response given: 2.76 µM (inactive)

* * *

Tested on: HOP-92
Experiment: NCI tumour cell line growth inhibition, 48 h
The source made the active and inactive calls. Cut-off read from the data, not from the text of the source: active = GI50 up to about 1.1 µM and inactive = higher.
// reported GI50 for each item listed

Consider the reported GI50 for these compounds:
O=[N+]([O-])c1cc2c([N+](=O)[O-])cccc2o1
17.4 µM (inactive)
Cc1ccc2c(ccc3[nH]cc(CNc4ccc(NS(C)(=O)=O)cc4)c32)n1
26.7 µM (inactive)
Cc1cn(CC2=NCCCN2)c(=O)[nH]c1=O
> 100 µM (inactive)

Challenge: Name the recorded GI50 for COc1ccc(-c2cc(-c3ccc(Nc4ccnc5cc(C(F)(F)F)ccc45)cc3)[nH]c(=O)c2C#N)cc1 .
Response given: 49.7 µM (inactive)

Challenge: Check CSc1ccc(/C=C2\N=C(c3ccccc3)N(/N=C3\C(=O)Nc4ccccc43)C2=O)cc1 too.
Response given: > 100 µM (inactive)

Challenge: Check CC(=O)O[C@H]1CCC(C)=CCC[C@@]2(C)C(CC[C@@H]2[C@@H](C)/C=C/C(C)C)c2ccc(cc2C(=O)O)C1 (some centres undefined) too.
Response given: 2.84 µM (inactive)

Challenge: Check COc1cc2oc3cc(=O)cc4oc(-c5ccccc5)cc(c2c2c1CCC(c1ccccc1)O2)c43 (centres undefined) too.
Response given: > 100 µM (inactive)

Challenge: Check COC(=O)C1=CC(=O)C(C(=O)Nc2ccc(OC)cc2)C(c2ccccc2)O1 (centres undefined) too.
Response given: 24 µM (inactive)

Challenge: Check CCOC(=O)[C@@]1(C(C)=O)CC(C)=C(C)C[S@@+]1[O-] too.
Response given: 50.2 µM (inactive)

* * *

Tested on: T47D
Assay: NCI tumour cell line growth inhibition, 48 h
The source made the active and inactive calls. Cut-off read from the data, not from the text of the source: active = GI50 up to about 1.1 µM and inactive = higher.
The reply should be one of these categories: active, inactive

Record excerpt, results attached:
N#Cc1c(Cl)nc2ccccc2c1N=[N+]=[N-]
inactive
CNCCN[C@@H]1c2cc3c(cc2[C@@H](c2cc(OC)c(O)c(OC)c2)[C@H]2C(=O)OC[C@@H]21)OCO3
active
Clc1ccc(COC(Cn2ccnc2)c2ccc(Cl)cc2Cl)c(Cl)c1 (stereo unspecified) [MICONAZOLE]
inactive
Cn1c(N)c(Cc2ccc(Cl)cc2)c(=O)[nH]c1=O
inactive
O=C(c1cccs1)N1CCN(C(=O)c2cccs2)C1=S
inactive
c1cc(C[S+]2CCCC2)sc1C[S+]1CCCC1
inactive
O=C1C=CC2(C=C1)O[C@H](Cc1ccccc1)[C@@H](Cc1ccccc1)O2
active
Cc1c(C)n(-c2ccccc2)c2nc([S+](C)[O-])nc([S+](C)[O-])c12 (stereo unspecified)
inactive
S=C(Nc1ccccc1)N(Cc1ccccc1)c1ccccc1
inactive
O=c1c2ccccc2nc2n1CCc1c-2[nH]c2ccccc12 [RUTAECARPINE]
inactive

Challenge: Outcome logged for CCC(C#N)NC(=O)NC(C#N)CC (stereo unspecified) in this assay:
Response given: inactive

* * *

System: TK-10
Experiment: NCI tumour cell line growth inhibition, 48 h
Activity calls are given as the source filed them. Rule as the data show it: active = GI50 up to about 1.1 µM and inactive = higher.
ASSAY ENDPOINT: GI50

Consider the reported GI50 for these molecules:
CNc1ncc(-c2nnnn2-c2ccccc2)c(CN(C)C)n1
> 100 µM (inactive)
CC(=O)c1cc([N+](=O)[O-])ccc1OCC(=O)O
> 100 µM (inactive)
c1cc(C[S+]2CCCC2)sc1C[S+]1CCCC1
> 100 µM (inactive)
O=C1c2ccccc2C(=O)N1CCCOCc1cnc(O)nc1O
> 100 µM (inactive)
CCOc1ccc2nc(NC(=O)C(=O)C(C(=O)c3ccccc3-c3ccccc3)C3OC(=O)c4ccccc43)sc2c1 (configuration not stated)
16.5 µM (inactive)

Now look at this entry.
Challenge: Name the recorded GI50 for C=C1C(=O)O[C@H]2C3C(=C(C)CC[C@@H]12)C(=O)[C@@H]1OC31C (some centres not stated) .
Response given: 2.27 µM (inactive)

* * *

Tested on: SNB-19
Test: NCI tumour cell line growth inhibition, 48 h
Active and inactive are the calls of the source. Rule as the data show it: active = GI50 up to about 1.1 µM and inactive = higher.
The reply should be one of these categories: class 1 (active), class 0 (inactive)

Challenge: Outcome logged for CSc1ccc(-c2cn3ccsc3n2)c(O)c1 in this assay:
Response given: class 0

* * *

System: SNB-19
Assay: NCI tumour cell line growth inhibition, 48 h
The source made the active and inactive calls. Cut-off read from the data, not from the text of the source: active = GI50 up to about 1.1 µM and inactive = higher.
ASSAY ENDPOINT: GI50

OCCN1CCN(CC/C=C2/c3ccccc3Sc3ccc(Cl)cc32)CC1
20.7 µM (inactive)
FC(F)(F)C1(C(F)(F)F)OC(Cl)(Cl)C(Cl)(Cl)O1
> 10 µM (inactive)
COc1cc2c(cc1OC)C1C[C@]3(CCN1CC2)C(=O)N(c1ccccc1)C(=O)N3C(C)=O (stereo partly specified)
> 200 µM (inactive)

Challenge: So what GI50 did C1=Nc2ccccc2Cn2nncc21 get with SNB-19?
Response given: > 100 µM (inactive)

Challenge: Check O=C1C2=C(CC3C(C2)C3(Br)Br)C(=O)C2=C1CC1C(C2)C1(Br)Br (stereo unspecified) too.
Response given: > 100 µM (inactive)

Challenge: Check CCCCCC/C=C\CCCCCCCCCc1c(O)c(OC)cc(O)c1CN(C)C too.
Response given: 12.9 µM (inactive)
